Tested on: human lymphoma RS11846 cell line
Assay: Apoptosis, Annexin V-FITC and propidium iodide assay
Type: cell-based
Conditions: Homo sapiens, Table 9; read-out: RS11846 EC50 (Annexin V- and propidium iodide assay)
pEC50: −log10 of the molar value.
Tick TRUE if pEC50 is 5 or greater. Tick FALSE if pEC50 is less than 5.

Query :: Check if pEC50 >= 5 (inclusive). Item: CCC(C)C(=O)c1c(O)c(O)cc2c(O)c(-c3c(C)cc4c(C(=O)C(C)CC)c(O)c(O)cc4c3O)c(C)cc12 (stereo not shown)
Result :: FALSE

Query :: Check if pEC50 >= 5 (inclusive). Item: CCCCC(CC)CC(=O)c1c(O)c(O)cc2c(O)c(-c3c(C)cc4c(C(=O)CC(CC)CCCC)c(O)c(O)cc4c3O)c(C)cc12 (stereo not shown)
Result :: TRUE

Query :: Check if pEC50 >= 5 (inclusive). Item: Cc1cc2c(C(=O)C3CCCC3)c(O)c(O)cc2c(O)c1-c1c(C)cc2c(C(=O)C3CCCC3)c(O)c(O)cc2c1O
Result :: TRUE

Query :: Check if pEC50 >= 5 (inclusive). Item: Cc1cc2c(C(=O)CCc3ccc(F)cc3)c(O)c(O)cc2c(O)c1-c1c(C)cc2c(C(=O)CCc3ccc(F)cc3)c(O)c(O)cc2c1O
Result :: TRUE

Query :: Check if pEC50 >= 5 (inclusive). Item: Cc1cc2cc(O)c(O)cc2c(O)c1-c1c(C)cc2cc(O)c(O)cc2c1O
Result :: FALSE

Query :: Check if pEC50 >= 5 (inclusive). Item: Cc1cc2c(C(=O)CC3CCCCC3)c(O)c(O)cc2c(O)c1-c1c(C)cc2c(C(=O)CC3CCCCC3)c(O)c(O)cc2c1O
Result :: TRUE

Query :: Check if pEC50 >= 5 (inclusive). Item: Cc1cc2c(C(=O)c3ccccc3)c(O)c(O)cc2c(O)c1-c1c(C)cc2c(C(=O)c3ccccc3)c(O)c(O)cc2c1O
Result :: FALSE

Query :: Check if pEC50 >= 5 (inclusive). Item: Cc1cc2c(C(=O)c3nc4ccccc4s3)c(O)c(O)cc2c(O)c1-c1c(C)cc2c(C(=O)c3nc4ccccc4s3)c(O)c(O)cc2c1O
Result :: TRUE
